List of inhibition values.
targetUnderTest: Tyrosine-protein kinase FRK (Homo sapiens);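 further: reported percent inhibition is a mean value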
conditionSummary: at 1 µM
Output spec: scalar in %, unitless text.

Example entries begin here.
- chemSmiles: "Cc1cc(Cl)cc2c1NC(=O)C2=NNc1ccc(S(N)(=O)=O)cc1"
  experimentalResult: 3.32
- chemSmiles: "CN(C)C(=O)O[C@H]1CN[C@H](C#Cc2cc3ncnc(Nc4ccc(OCc5cccc(F)c5)c(Cl)c4)c3s2)C1"
  experimentalResult: 1.4
- chemSmiles: "CS(=O)(=O)Nc1cccc(-c2ccc3c(NC(=O)C4CC4)n[nH]c3c2)c1"
  experimentalResult: 0.42
- chemSmiles: "Cc1nc(-c2ccccc2)n2nc(NCCCN3CCOCC3)ncc12"
  experimentalResult: 2.61
- chemSmiles: "NS(=O)(=O)c1ccc(-c2cc3ccncc3cc2OCc2ccccc2)cc1"
  experimentalResult: 1.07

Task: Give reported inhibition for `COc1cccc(-n2ncc3c(N/N=C/c4ccc(S(C)(=O)=O)cc4)ncnc32)c1` (Tyrosine-protein kinase FRK (Homo sapiens))
Result: 3.05

Task: Give reported inhibition for `Cc1ccc(C(=O)NC2CC2)cc1-c1ccc2[nH]ncc2c1` (Tyrosine-protein kinase FRK (Homo sapiens))
Result: -4.36

Task: Give reported inhibition for `CCS(=O)(=O)c1ccc(OC)c(Nc2ncc(-c3cccc(OC)c3)o2)c1` (Tyrosine-protein kinase FRK (Homo sapiens))
Result: 26.9

Task: Give reported inhibition for `CN(C)CCCn1c(-c2nonc2N)nc2cnccc21` (Tyrosine-protein kinase FRK (Homo sapiens))
Result: 1.55

Task: Give reported inhibition for `CCOc1nccc2c1nc(-c1nonc1N)n2CC` (Tyrosine-protein kinase FRK (Homo sapiens))
Result: -0.64

Task: Give reported inhibition for `Cc1ccc2c(c1)/C(=N/Nc1ccc(S(N)(=O)=O)cc1)C(=O)N2` (Tyrosine-protein kinase FRK (Homo sapiens))
Result: 0.7

Task: Give reported inhibition for `Cc1ccc2c(-c3ccnc(Nc4ccc5c(c4)OCCO5)n3)c(-c3ccc(C(F)(F)F)cc3)nn2n1` (Tyrosine-protein kinase FRK (Homo sapiens))
Result: -0.65

----------
List of inhibition values.
targetUnderTest: Ephrin type-A receptor 3 (Homo sapiens) (UniProt P29320);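 further: mean inhibition value reported from the GSK PKIS kinase profiling screen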
Sequence (whole entry): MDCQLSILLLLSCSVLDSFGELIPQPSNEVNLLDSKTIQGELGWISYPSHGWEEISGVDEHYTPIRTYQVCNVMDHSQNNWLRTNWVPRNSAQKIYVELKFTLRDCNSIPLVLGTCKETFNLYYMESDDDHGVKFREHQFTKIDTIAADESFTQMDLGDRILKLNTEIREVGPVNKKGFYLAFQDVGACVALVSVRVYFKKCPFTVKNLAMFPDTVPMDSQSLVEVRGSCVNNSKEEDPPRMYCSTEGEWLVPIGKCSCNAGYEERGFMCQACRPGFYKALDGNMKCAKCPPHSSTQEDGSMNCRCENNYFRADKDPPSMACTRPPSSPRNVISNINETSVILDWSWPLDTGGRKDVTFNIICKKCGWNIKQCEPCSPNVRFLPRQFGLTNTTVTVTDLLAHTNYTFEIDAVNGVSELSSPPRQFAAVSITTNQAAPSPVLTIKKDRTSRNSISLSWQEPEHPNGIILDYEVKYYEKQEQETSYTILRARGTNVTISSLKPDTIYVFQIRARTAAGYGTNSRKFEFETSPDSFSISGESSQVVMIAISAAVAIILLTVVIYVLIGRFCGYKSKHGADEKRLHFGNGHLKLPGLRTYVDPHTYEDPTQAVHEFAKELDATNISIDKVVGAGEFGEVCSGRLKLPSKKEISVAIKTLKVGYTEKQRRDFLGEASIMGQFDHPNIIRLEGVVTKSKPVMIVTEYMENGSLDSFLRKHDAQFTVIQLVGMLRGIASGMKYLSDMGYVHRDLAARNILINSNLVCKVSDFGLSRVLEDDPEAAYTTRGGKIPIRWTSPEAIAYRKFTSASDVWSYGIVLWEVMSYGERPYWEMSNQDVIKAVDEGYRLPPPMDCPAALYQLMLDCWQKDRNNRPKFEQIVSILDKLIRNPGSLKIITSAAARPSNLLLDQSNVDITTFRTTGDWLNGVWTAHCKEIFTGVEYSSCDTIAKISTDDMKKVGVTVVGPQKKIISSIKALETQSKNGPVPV
conditionSummary: at 1 µM
Output spec: scalar in %, unitless text.

Example entries begin here.
- chemSmiles: "CCS(=O)(=O)c1ccc(OC)c(Nc2nccc(N(C)c3ccc4c(C)n[nH]c4c3)n2)c1"
  targetUnderTest: "Ephrin type-A receptor 3 (Homo sapiens) (UniProt P29320)"
  inhibition (%): 12.2
- chemSmiles: "CCn1c(-c2nonc2N)nc2ccc(F)cc21"
  targetUnderTest: "Ephrin type-A receptor 3 (Homo sapiens) (UniProt P29320)"
  inhibition (%): 4.99
- chemSmiles: "Cc1cc(O)cc(C)c1/C=C/c1cncc(C(=O)N(C)C)c1"
  targetUnderTest: "Ephrin type-A receptor 3 (Homo sapiens) (UniProt P29320)"
  inhibition (%): 8.52

Task: In one line, give reported inhibition of the entry `O=C(Nc1ccc(Oc2ccc3[nH]c(NC(=O)c4ccco4)nc3c2)cc1)Nc1cc(C(F)(F)F)ccc1F` .
Result: 15.9

Task: In one line, give reported inhibition of the entry `Nc1nccc(C#Cc2cncnc2Nc2ccc(OCc3cccc(F)c3)c(Cl)c2)n1` .
Result: 3.27

Task: In one line, give reported inhibition of the entry `NS(=O)(=O)c1ccc(-c2cc3ccncc3cc2OCc2ccccc2)cc1` .
Result: 3.77

Task: In one line, give reported inhibition of the entry `C[C@@H](Oc1cc(-n2cnc3ccc(OCC4CCN(C)CC4)cc32)sc1C(N)=O)c1ccccc1C(F)(F)F` .
Result: -0.01

Task: In one line, give reported inhibition of the entry `COc1ccc2ncnc(Nc3ccc(OCc4ccccc4)cc3)c2c1` .
Result: 3.28

Task: In one line, give reported inhibition of the entry `CN(C)C(=O)O[C@H]1CN[C@H](C#Cc2cc3ncnc(Nc4ccc(OCc5cccc(F)c5)c(Cl)c4)c3s2)C1` .
Result: 4.79

Task: In one line, give reported inhibition of the entry `Cc1ccc2c(-c3ccnc(Nc4cccc(C(F)(F)F)c4)n3)c(-c3ccccc3)nn2n1` .
Result: 15.1

Task: In one line, give reported inhibition of the entry `Cc1ccc(NC(=O)CC2CC2)cc1-c1ccc(C(=O)NCC2CC2)cc1` .
Result: 4.59

Task: In one line, give reported inhibition of the entry `Cc1ccc(O)cc1Nc1ccnc2ccc(S(C)(=O)=O)cc12` .
Result: 81.5

Task: In one line, give reported inhibition of the entry `Oc1cccc(-c2nc(-c3ccccc3)[nH]c2-c2ccncc2)c1` .
Result: 6.42

Task: In one line, give reported inhibition of the entry `NS(=O)(=O)c1cccc(-c2cc3ccncc3cc2OCc2ccccc2)c1` .
Result: 3.87

Task: In one line, give reported inhibition of the entry `NC(=O)c1cccc(Nc2nccc(Nc3cccc(F)c3)n2)c1` .
Result: 7.65

Task: In one line, give reported inhibition of the entry `CS(=O)(=O)Nc1cccc(-c2ccc3c(NC(=O)C4CC4)n[nH]c3c2)c1` .
Result: -1.02

Task: In one line, give reported inhibition of the entry `Cc1nc(-c2ccccc2)n2nc(NCCCN3CCOCC3)ncc12` .
Result: 4.01
